Biological target: human PMEL17 (human) (UniProt P40967)
Sequence (P40967 25-661): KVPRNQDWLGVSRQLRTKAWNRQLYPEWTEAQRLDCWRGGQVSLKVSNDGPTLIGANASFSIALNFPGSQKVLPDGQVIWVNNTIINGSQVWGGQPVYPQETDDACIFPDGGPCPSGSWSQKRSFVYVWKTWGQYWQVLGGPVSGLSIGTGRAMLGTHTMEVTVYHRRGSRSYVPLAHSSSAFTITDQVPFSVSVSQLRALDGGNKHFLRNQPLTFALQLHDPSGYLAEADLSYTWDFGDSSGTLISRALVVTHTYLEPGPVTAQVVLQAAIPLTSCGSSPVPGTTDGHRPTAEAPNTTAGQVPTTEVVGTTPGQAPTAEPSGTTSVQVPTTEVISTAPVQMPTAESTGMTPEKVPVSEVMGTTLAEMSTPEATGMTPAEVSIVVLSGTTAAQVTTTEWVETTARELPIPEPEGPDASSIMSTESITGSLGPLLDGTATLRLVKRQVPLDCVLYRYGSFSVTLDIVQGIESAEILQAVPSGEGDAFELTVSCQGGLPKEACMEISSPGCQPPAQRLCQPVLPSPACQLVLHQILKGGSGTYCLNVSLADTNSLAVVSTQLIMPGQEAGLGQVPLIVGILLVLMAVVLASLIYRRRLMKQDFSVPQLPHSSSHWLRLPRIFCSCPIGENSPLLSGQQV
Assay: FACS titration of IgG on G-361 cells (human melanoma), Alexa Fluor detection antibody
Metric: EC50 (nM)
Express your answer in nM, writing the number without its unit.

Binder	Unit Info	EC50
Y010900 (antibody, V domains shown) VH: EVQLVESGGGLVKPGGSLRLSCAASGFTFSNAWMSWVRQAPGKGLEWVGRIKSKTDAGTTDYAAPVKGRFTISRDDSKNTLYLQMNSLKTEDTAVYYCARTIYPSAPSSSLDYWGQGTLVTVSS VL: DIQMTQSPSSLSASVGDRVTITCRASQGISNYLAWYQQKPGKVPKLLIYAASTLQSGVPSRFSGSGSGTDFTLTISSLQPEDVATYYCQQLIFFPLTFGQGTKVEIK	nM	1.3
MOR024354 (antibody, V domains shown) VH: QVQLLESGGGLVQPGGSLRLSCAASGFTFSSFGMSWVRQAPGKGLEWVSAISYSGSDTYYADSVKGRFTISRDNSKNTLYLQMNSLRAEDTAVYYCARDVGVMDYWGQGTLVTVSS VL: SYELTQPLSVSVALGQTARITCSGDNLGTYYAHWYQQKPGQAPVLVIYSQSHRPSGIPERFSGSNSGNTATLTISRAQAGDEADYYCGAWDAPSPELVFGGGTKLTVL	nM	1.7
Y010903 (antibody, V domains shown) VH: EVQLVESGGGLVKPGGSLRLSCAASGFTFSNAWMSWVRQAPGKGLEWVGRIKSKTDAGTTDYAAPVKGRFTISRDDSKNTLYLQMNSLKTEDTAVYYCARASHRLHSLFDVWGQGTLVTVSS VL: DIQMTQSPSTLSASVGDRVTITCRASQSISSWLAWYQQKPGKAPKLLIYDASSLESGVPSRFSGSGSGTEFTLTISSLQPEDFATYYCQQGLFYPHTFGQGTKVEIK	nM	3.2
Y010910 (antibody, V domains shown) VH: EVQLVESGGGLVKPGGSLRLSCAASGFTFSNAWMSWVRQAPGKGLEWVGRIKSKTDAGTTDYAAPVKGRFTISRDDSKNTLYLQMNSLKTEDTAVYYCARVASPSAPGGFDYWGQGTLVTVSS VL: DIQMTQSPSSLSASVGDRVTITCRASQGISNYLAWYQQKPGKVPKLLIYAASTLQSGVPSRFSGSGSGTDFTLTISSLQPEDVATYYCQQSLFAPFTFGQGTKVEIK	nM	10

Here's the next entry for you.
Exam item: Any idea what EC50 was measured for Y010906 (antibody, V domains shown) VH: EVQLVESGGGLVKPGGSLRLSCAASGFTFSNAWMSWVRQAPGKGLEWVGRIKSKTDAGTTDYAAPVKGRFTISRDDSKNTLYLQMNSLKTEDTAVYYCARDEYPWGWFDVWGQGTLVTVSS VL: DIQMTQSPSSVSASVGDRVTITCRASQGISSWLAWYQQKPGKAPKLLIYAASSLQSGVPSRFSGSGSGTDFTLTISSLQPEDFATYYCQQYIFYPLTFGQGTKVEIK ?
Marked response: 2
